Target: T1, WHRN NPDZ12 R223H (UniProt Q9P202 33-377, R223H)
T1 construct: WHRN, residues 33-377 of UniProtKB Q9P202 with the deafness-related mutation R223H; source: E. coli BL21 (DE3), purified (Ni2+-NTA, size-exclusion chromatography)
T1 sequence (looked up): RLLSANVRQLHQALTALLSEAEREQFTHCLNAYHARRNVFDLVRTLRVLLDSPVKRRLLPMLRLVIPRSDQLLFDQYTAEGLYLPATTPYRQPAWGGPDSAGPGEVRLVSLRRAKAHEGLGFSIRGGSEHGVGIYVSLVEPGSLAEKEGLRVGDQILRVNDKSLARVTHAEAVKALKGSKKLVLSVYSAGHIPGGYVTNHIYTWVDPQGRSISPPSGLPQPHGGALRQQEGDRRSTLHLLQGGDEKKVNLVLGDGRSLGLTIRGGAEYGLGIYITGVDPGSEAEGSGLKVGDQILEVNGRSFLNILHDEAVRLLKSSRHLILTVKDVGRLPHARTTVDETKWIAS
Test: ITC; MicroCal iTC200, 25 °C; 50 mM tris pH 7.5-8.0, 300 mM NaCl, 1 mM DTT, 1 mM EDTA; cell 20–50 µM, syringe 400–800 µM; one-site binding model
readout_kind: Kd (µM)
Give bare numbers, in µM.

input: Requested field: Kd. Item: GHSSGLYVDEEELMNAIKGFSSVTKEHTAFTDTHL (domain or fragment) [USH2A-CT (Short, S)]
output: 4.7
